- tested on: Hck (UniProt P08631)
- Sequence (P08631 whole entry, looked up): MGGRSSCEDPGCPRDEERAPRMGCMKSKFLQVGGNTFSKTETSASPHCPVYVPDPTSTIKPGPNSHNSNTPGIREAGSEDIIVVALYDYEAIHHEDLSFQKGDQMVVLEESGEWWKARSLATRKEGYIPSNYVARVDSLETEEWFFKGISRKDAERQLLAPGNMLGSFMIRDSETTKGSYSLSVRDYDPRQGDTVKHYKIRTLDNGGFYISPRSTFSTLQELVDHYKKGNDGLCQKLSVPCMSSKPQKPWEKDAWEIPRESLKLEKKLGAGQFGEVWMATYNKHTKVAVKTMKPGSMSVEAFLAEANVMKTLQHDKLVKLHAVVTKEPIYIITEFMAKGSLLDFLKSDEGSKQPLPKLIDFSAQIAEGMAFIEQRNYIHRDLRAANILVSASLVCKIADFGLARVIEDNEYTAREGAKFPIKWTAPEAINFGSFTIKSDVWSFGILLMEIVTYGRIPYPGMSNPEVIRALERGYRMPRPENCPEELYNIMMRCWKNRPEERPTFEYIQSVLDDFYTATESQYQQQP
- run description: phosphorylation enrichment, bacterial display (enrichment ratio); higher = better substrate or ligand; peptides without Tyr show the background;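 further: 11-residue human phosphosite peptides and single-mutation variants displayed on the E. coli surface, counted by deep sequencing, each peptide's frequency after selection divided by its frequency in the unselected input library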;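 further: frequency after pTyr selection over input frequency; kinase dosed for 20-30% of maximal phosphorylation in three min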
List of phosphorylation enrichment values.

| sequence | phosphorylation enrichment |
| --- | --- |
| TVQVAYYTMMM [SPATA17_Y83] | 2.19 |
| ATRDVYNPFET [SCAMP3_Y41_L38R] | 1.06 |
| DLVSEYQQFQD [TUBB3_Y422_YF] | 0.643 |
| EDAHHYLCKEV [JAK2_Y382_A377E] | 0.439 |
| TVQVAYYTVMM [SPATA17_Y83_M86V] | 1.74 |
| DFCDLYGGEKF [PTPN11_Y66_Y63C_YF] | 1.76 |
| TEALFYTDDPA [ADPRS_Y75_T79P_YF] | 0.76 |
| SVSVNYGDQVQ [GRAP_Y101] | 0.416 |
| TSKLSYLDPRI [TOP1_Y723_N722S] | 0.446 |
| SGETEYNPTEA [NBEAL2_Y2748] | 0.707 |
| GGFSRYDEGSG [RECQL5_Y484_D480G] | 0.468 |
| GEDLSYGDLPP [IRS1_Y151_V154L] | 0.564 |
| SAPPSHEETVA [LITAF_Y23_Y23H] | 0.342 |
| EKAEVYGSENE [RIOK2_Y348] | 0.464 |
| HNLNFYKKTTN [FGFR3_Y648_D646N_YF] | 0.572 |
| KKHIPCREHKS [CSNK1G2_Y206_Y206C] | 0.876 |
| IENKPYGMSDP [RET_Y1062_L1061P] | 0.458 |
| RPSELYFSKIS [SMG1_Y2253_G2258S_YF] | 2.85 |
| RIGRKYKRVRF [F8_Y442_K444R] | 1.23 |
| SILTVYSKDNF [PANK2_Y400_A398T_YF] | 0.548 |
| KLADVYQAELR [GFAP_Y116] | 0.47 |
| VEYAKYGSLQG [RET_Y809_R813Q] | 0.846 |
| YSGDYYRIQGR [DDR2_Y741] | 1.68 |
| INVTIYGKTFR [EFHC1_Y177_I174V] | 0.609 |
| RGFRQDAFDGK [HLA-A_Y140_YF] | 0.396 |
| SVVVPYEPPDV [TP53_Y220_E224D] | 0.447 |
| ATGLIYIGSHD [AASDH_Y870_T865A] | 0.469 |
| KAEELYIGVTV [EFHC2_Y509] | 2.75 |
| HSYNSYTYPRL [PAK5_Y316] | 0.485 |
| KVALVYGQMNE [ATP5F1B_Y269] | 1.05 |
| KDAGDYKYKAK [LRIT3_Y326_C328Y] | 0.346 |
| VECQVYAEDPY [PCCA_Y401_R399Q] | 0.669 |
| TFAVSYLPDMS [FLNC_Y1602_T1599A_YF] | 0.5 |
| NTADFYDLFGG [PTPN11_Y63_G60A_YF] | 3.02 |
| LNPFIYSLRNC [OR1A2_Y288_W293C] | 5.22 |
| VDTLWYKFLKR [EPM2A_Y86_F84L] | 0.441 |
| PINLFYLMDLS [ITGB2_Y131_D128N_YF] | 0.718 |
| MPVDGYISGLL [PAK6_Y81] | 0.441 |
| KVGPGSLGSGG [RET_Y826_Y826S] | 0.323 |
| QADVVYVNTQL [MERTK_Y872_I871V] | 0.729 |
| DHAGTYGLGDR [MAPT_Y18] | 0.43 |
| IRNRDYDDIDD [TTYH2_Y424_T419I] | 0.515 |
| NVTRKYTRQIL [MAP3K2_Y463] | 0.265 |
| KALKQYRASPS [DDX27_Y763_G766S] | 0.318 |
| IAAEYYDNLPH [DEGS1_Y284] | 2.42 |
| SVQVDYMKTIL [GLYATL2_Y127] | 0.517 |
| MFCAGYDTKQE [F10_Y407] | 0.632 |
| YGSSSYGGAGG [RPA2_Y14] | 0.39 |
| LAETSYVTVLE [MAGEA1_Y276_K278T] | 0.862 |
| SEDSEYYRAFE [CASQ2_Y178_K180R] | 0.685 |
| AVLSLYASGST [ACTG2_Y144_R148S] | 0.638 |
| DNEALYDICFC [TUBB3_Y208_R213C] | 5.92 |
| YDRREYSRFEK [ITGB7_Y758] | 0.673 |
| FGMQLYQNFMH [GRB14_Y347_YF] | 3.03 |
